- experimental.target: Cholecystokinin receptor type A (Cavia porcellus, UniProt Q63931)
- Sequence (Q63931 whole entry): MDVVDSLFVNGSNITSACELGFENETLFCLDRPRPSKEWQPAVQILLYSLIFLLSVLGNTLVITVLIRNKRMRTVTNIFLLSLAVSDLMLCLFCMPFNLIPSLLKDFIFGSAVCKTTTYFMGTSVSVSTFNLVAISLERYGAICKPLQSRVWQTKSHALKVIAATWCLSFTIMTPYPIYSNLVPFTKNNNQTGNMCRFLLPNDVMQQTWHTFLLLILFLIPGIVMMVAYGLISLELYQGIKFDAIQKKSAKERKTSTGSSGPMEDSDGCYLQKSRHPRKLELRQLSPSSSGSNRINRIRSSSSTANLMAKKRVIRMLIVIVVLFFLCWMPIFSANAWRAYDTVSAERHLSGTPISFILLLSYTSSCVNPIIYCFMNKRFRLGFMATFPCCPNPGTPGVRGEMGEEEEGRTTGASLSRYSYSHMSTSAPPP
Non-standard residues stand in square brackets, D forms with d. Residues, ends and D or L forms follow the SMILES beside them. *: point of attachment. 1Nal = N[C@@H](Cc1cccc2ccccc12)C(=O)O; Phg = N[C@H](C(=O)O)c1ccccc1; Boc = CC(C)(C)OC(=O)*
Below: a set of entries, each annotated with reported Ki.
Give your result in nM as a bare value.

compound	readout.unit	Ki
CN(C)C(=O)[C@H](Cc1cccc2ccccc12)NC(=O)[C@H](CC(=O)O)NC(=O)[C@@H](NC(=O)[C@H](Cc1c[nH]c2ccccc12)NC(=O)OC(C)(C)C)c1ccccc1 (Boc-W[Phg]D[1Nal]-NMe2)	nM	1000
CCCC[C@@H](NC(=O)CC(=O)N[C@@H](Cc1c[nH]c2ccccc12)C(=O)N(C)[C@@H](CCCC)C(=O)N[C@@H](CC(=O)O)C(=O)N[C@@H](Cc1ccccc1)C(N)=O)NC(=O)[C@H](Cc1ccc(CS(=O)(=O)O)cc1)NC(=O)OC(C)(C)C	nM	1100
CC(C)(C)OC(=O)N[C@@H](Cc1c[nH]c2ccccc12)C(=O)N[C@H](C(=O)N[C@@H](CC(=O)O)C(=O)N[C@@H](Cc1cccc2ccccc12)C(N)=O)c1ccccc1 (Boc-W[Phg]D[1Nal]-NH2)	nM	1100

The record that follows has no Ki shown yet.
Response field Ki (Cholecystokinin receptor type A (Cavia porcellus, UniProt Q63931)) for item CC(C)(C)OC(=O)N[C@@H](Cc1c[nH]c2ccccc12)C(=O)N[C@@H](Cc1ccccc1)C(=O)N[C@@H](CC(=O)O)C(=O)N[C@@H](Cc1cccc2ccccc12)C(N)=O (Boc-WFD[1Nal]-NH2) : 2400
